The entries that follow carry pIC50 values tested on Epidermal growth factor receptor (Homo sapiens, UniProt P00533), drawn from several published reports.
pIC50: −log10 of the molar value.

Please review the following examples before continuing.
| compound_structure_string | pIC50 |
| --- | --- |
| CCCOc1c(NC(=O)/C=C/[C@H]2CCCN2C)ccc2ncnc(Nc3ccc(OCc4ccccn4)c(Cl)c3)c12 | > 8.00 |
| COc1cc(COc2nsc(NC(=O)NCCCCN3CC[C@@H](F)C3)c2C(N)=O)cc(OC)c1 | < 4.22 |
| CS(=O)(=O)c1c(F)c(F)c(F)c(F)c1C(=O)N1CC(n2nc(-c3ccc(Oc4ccccc4)cc3)c3c(N)ncnc32)C1 | > 6.00 |
| CN(C)C/C=C/C(=O)Nc1ccc2ncnc(Nc3cccc(Cl)c3F)c2c1OCC(F)F | ≥ 9.00 |
| NC(=O)c1c(OCc2cc3c(cc2F)CCO3)nsc1NC(=O)NCCCCN1CC[C@H](F)C1 | 5.09 |
| COc1cc(COc2nsc(NC(=O)NCCCCN3CCCC3)c2C(N)=O)cc(OC)c1 | 4.46 |

Switching to the query record.
Qu. Bench note: what pIC50 did `CCOc1c(NC(=O)/C=C/[C@H]2CCCN2C)ccc2ncnc(Nc3ccc(OCc4ccccn4)c(Cl)c3)c12` show?
Ans. 7.00 to 8.00
